Measured pIC50, listed per entry.
# System: 926638-142-R-J1-PDC complex spheroid viability
# Assay explanation: Anticancer human tumor 926638-142-R-J1-PDC patient-derived endometrial carcinoma cell line growth inhibition [POLQ]
# Measurement context: curve of first compound; second compound 1 µM
pIC50: −log10 of the molar value.
Endpoint: pIC50

{"Molecule": "C=CC(=O)N1CCN(c2nc(=O)n(-c3c(C)ccnc3C(C)C)c3nc(-c4c(O)cccc4F)c(F)cc23)C(C)C1 (centres undefined) + Nc1ccc(C#CCN(C(=O)Cc2ncc(C(F)(F)F)cc2C(F)(F)F)c2ccc(F)cc2)nn1", "Value measured": "< 5.00"}
{"Molecule": "CC(=O)O[C@H]1C(=O)[C@@]2(C)[C@H]([C@H](OC(=O)c3ccccc3)[C@]3(O)C[C@H](OC(=O)[C@H](O)[C@@H](NC(=O)c4ccccc4)c4ccccc4)C(C)=C1C3(C)C)[C@]1(OC(C)=O)CO[C@@H]1C[C@@H]2O + Nc1ccc(C#CCN(C(=O)Cc2ncc(C(F)(F)F)cc2C(F)(F)F)c2ccc(F)cc2)nn1", "Value measured": "< 5.52"}
{"Molecule": "C#Cc1c(F)ccc2cc(O)cc(-c3ncc4c(N5CC6CCC(C5)N6)nc(OCC56CCCN5CC(F)C6)nc4c3F)c12 (centres undefined) + Cc1cccc(N(C)C(=O)C2C(O)CCN2c2nc(C)cc(C(F)(F)F)c2C#N)c1", "Value measured": "< 5.00"}
{"Molecule": "CC(C)n1c(=O)n(C)c2cnc3cc(F)c(-c4ccc(OCCCN5CCCCC5)nc4)cc3c21 + COC1C(OC(N)=O)C(O)C(Oc2ccc3c(O)c(NC(=O)c4ccc(O)c(CC=C(C)C)c4)c(=O)oc3c2C)OC1(C)C", "Value measured": "< 5.00"}
{"Molecule": "Cn1ncnc1[C@H]1c2n[nH]c(=O)c3cc(F)cc(c23)N[C@@H]1c1ccc(F)cc1 + Nc1ccc(C#CCN(C(=O)Cc2ncc(C(F)(F)F)cc2C(F)(F)F)c2ccc(F)cc2)nn1", "Value measured": "< 7.00"}
{"Molecule": "CC(C)n1c(=O)n(C)c2cnc3cc(F)c(-c4ccc(OCCCN5CCCCC5)nc4)cc3c21 + Nc1ccc(C#CCN(C(=O)Cc2ncc(C(F)(F)F)cc2C(F)(F)F)c2ccc(F)cc2)nn1", "Value measured": "< 5.00"}
{"Molecule": "COc1cc(C2c3cc4c(cc3C(OC3OC5COC(C)OC5C(O)C3O)C3COC(=O)C23)OCO4)cc(OC)c1O (centres undefined) + Nc1ccc(C#CCN(C(=O)Cc2ncc(C(F)(F)F)cc2C(F)(F)F)c2ccc(F)cc2)nn1", "Value measured": "< 5.00"}
{"Molecule": "CC(=O)O[C@H]1C(=O)[C@@]2(C)[C@H]([C@H](OC(=O)c3ccccc3)[C@]3(O)C[C@H](OC(=O)[C@H](O)[C@@H](NC(=O)c4ccccc4)c4ccccc4)C(C)=C1C3(C)C)[C@]1(OC(C)=O)CO[C@@H]1C[C@@H]2O + COC1C(OC(N)=O)C(O)C(Oc2ccc3c(O)c(NC(=O)c4ccc(O)c(CC=C(C)C)c4)c(=O)oc3c2C)OC1(C)C", "Value measured": "< 5.52"}
{"Molecule": "O=C(c1cc(Cc2n[nH]c(=O)c3ccccc23)ccc1F)N1CCN(C(=O)C2CC2)CC1 + COC1C(OC(N)=O)C(O)C(Oc2ccc3c(O)c(NC(=O)c4ccc(O)c(CC=C(C)C)c4)c(=O)oc3c2C)OC1(C)C", "Value measured": "< 5.00"}

###

# System: 926638-142-R-J1-PDC complex spheroid viability
# Assay explanation: Anticancer human tumor 926638-142-R-J1-PDC cell line growth inhibition [POLQ];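 also: spheroids exposed to drugs for one week before readout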;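 as to viability, T/C: percent viability relative to DMSO vehicle control wells set as 100%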
# Measurement context: second compound 10 µM; first compound 0.1 µM; stronger effect = lower value

{"Compound": "CNCc1ccc(-c2[nH]c3cc(F)cc4c3c2CCNC4=O)cc1 + COC1C(OC(N)=O)C(O)C(Oc2ccc3c(O)c(NC(=O)c4ccc(O)c(CC=C(C)C)c4)c(=O)oc3c2C)OC1(C)C", "Assay target": "926638-142-R-J1-PDC complex spheroid viability", "viability, T/C, %": 79.9}
{"Compound": "C=CCn1c(=O)c2cnc(Nc3ccc(N4CCN(C)CC4)cc3)nc2n1-c1cccc(C(C)(C)O)n1 + COC1C(OC(N)=O)C(O)C(Oc2ccc3c(O)c(NC(=O)c4ccc(O)c(CC=C(C)C)c4)c(=O)oc3c2C)OC1(C)C", "Assay target": "926638-142-R-J1-PDC complex spheroid viability", "viability, T/C, %": 80.5}
{"Compound": "O=C(Nc1ccc(O)c(NS(=O)(=O)c2ccc(F)cc2)c1)c1ccc(-c2ccccc2)cc1 + COC1C(OC(N)=O)C(O)C(Oc2ccc3c(O)c(NC(=O)c4ccc(O)c(CC=C(C)C)c4)c(=O)oc3c2C)OC1(C)C", "Assay target": "926638-142-R-J1-PDC complex spheroid viability", "viability, T/C, %": 103}
{"Compound": "CCc1cc2c(N3CCc4c(cc(Cn5ccnc5)cc4-c4cn(C)nc4C(F)(F)F)C3=O)cc(C)nc2c(OC)n1 + Cc1cccc(N(C)C(=O)C2C(O)CCN2c2nc(C)cc(C(F)(F)F)c2C#N)c1", "Assay target": "926638-142-R-J1-PDC complex spheroid viability", "viability, T/C, %": 64.7}
{"Compound": "COc1cc2cc(C(=O)CCC(=O)O)sc2cc1OC + Nc1ccc(C#CCN(C(=O)Cc2ncc(C(F)(F)F)cc2C(F)(F)F)c2ccc(F)cc2)nn1", "Assay target": "926638-142-R-J1-PDC complex spheroid viability", "viability, T/C, %": 101}
{"Compound": "CCc1cc2c(N3CCc4c(cc(Cn5ccnc5)cc4-c4cn(C)nc4C(F)(F)F)C3=O)cc(C)nc2c(OC)n1 + COC1C(OC(N)=O)C(O)C(Oc2ccc3c(O)c(NC(=O)c4ccc(O)c(CC=C(C)C)c4)c(=O)oc3c2C)OC1(C)C", "Assay target": "926638-142-R-J1-PDC complex spheroid viability", "viability, T/C, %": 65.8}
{"Compound": "COc1cccc2c1C(=O)c1c(O)c3c(c(O)c1C2=O)CC(O)(C(=O)CO)CC3OC1CC(N)C(O)C(C)O1 (configuration not stated) + Nc1ccc(C#CCN(C(=O)Cc2ncc(C(F)(F)F)cc2C(F)(F)F)c2ccc(F)cc2)nn1", "Assay target": "926638-142-R-J1-PDC complex spheroid viability", "viability, T/C, %": 57.6}
{"Compound": "CCCS(=O)(=O)Nc1ccc(F)c(C(=O)c2c[nH]c3ncc(-c4ccc(Cl)cc4)cc23)c1F + Nc1ccc(C#CCN(C(=O)Cc2ncc(C(F)(F)F)cc2C(F)(F)F)c2ccc(F)cc2)nn1", "Assay target": "926638-142-R-J1-PDC complex spheroid viability", "viability, T/C, %": 93.5}
{"Compound": "CC1COCCN1c1cc(-c2ccnn2C)c2ccnc(-c3ccn[nH]3)c2n1 (configuration not stated) + Nc1ccc(C#CCN(C(=O)Cc2ncc(C(F)(F)F)cc2C(F)(F)F)c2ccc(F)cc2)nn1", "Assay target": "926638-142-R-J1-PDC complex spheroid viability", "viability, T/C, %": 74.5}
{"Compound": "CC1COCCN1c1cc(C2(O)CC3CCC(C2)O3)c2cnn(-c3ccn[nH]3)c2n1 (configuration not stated) + Cc1cccc(N(C)C(=O)C2C(O)CCN2c2nc(C)cc(C(F)(F)F)c2C#N)c1", "Assay target": "926638-142-R-J1-PDC complex spheroid viability", "viability, T/C, %": 72.9}
{"Compound": "COc1cccc(OCCCN)c1-c1cc(Nc2cnc(C#N)cn2)n[nH]1 + COC1C(OC(N)=O)C(O)C(Oc2ccc3c(O)c(NC(=O)c4ccc(O)c(CC=C(C)C)c4)c(=O)oc3c2C)OC1(C)C", "Assay target": "926638-142-R-J1-PDC complex spheroid viability", "viability, T/C, %": 44.5}
{"Compound": "O=C(c1cc(Cc2n[nH]c(=O)c3ccccc23)ccc1F)N1CCN(C(=O)C2CC2)CC1 + Nc1ccc(C#CCN(C(=O)Cc2ncc(C(F)(F)F)cc2C(F)(F)F)c2ccc(F)cc2)nn1", "Assay target": "926638-142-R-J1-PDC complex spheroid viability", "viability, T/C, %": 85.8}

###

# Tested on: 926638-142-R-J1-PDC complex spheroid viability
# Assay explanation: Anticancer human tumor 926638-142-R-J1-PDC cell line growth inhibition [POLQ];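 also: spheroids exposed to drugs for one week before readout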;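 as to viability, T/C: percent viability relative to DMSO vehicle control wells set as 100%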
# Measurement context: second compound 0.0316 µM; first compound 3.16 µM; stronger effect = lower value
Measured viability, T/C, listed per entry.

{"Compound": "COc1cc2cc(C(=O)CCC(=O)O)sc2cc1OC + COC1C(OC(N)=O)C(O)C(Oc2ccc3c(O)c(NC(=O)c4ccc(O)c(CC=C(C)C)c4)c(=O)oc3c2C)OC1(C)C", "Assay target": "926638-142-R-J1-PDC complex spheroid viability", "viability, T/C, %": 99.6}
{"Compound": "Nc1ccn(C2OC(CO)C(O)C2(F)F)c(=O)n1 (stereo not drawn) + Nc1ccc(C#CCN(C(=O)Cc2ncc(C(F)(F)F)cc2C(F)(F)F)c2ccc(F)cc2)nn1", "Assay target": "926638-142-R-J1-PDC complex spheroid viability", "viability, T/C, %": 43.9}
{"Compound": "COc1ccc([C@@H](O)c2cc(-c3ncnc4cc(N5CCOCC5)ccc34)c(F)cc2Cl)nn1 + Cc1cccc(N(C)C(=O)C2C(O)CCN2c2nc(C)cc(C(F)(F)F)c2C#N)c1", "Assay target": "926638-142-R-J1-PDC complex spheroid viability", "viability, T/C, %": 12.9}
{"Compound": "CC1COCCN1c1cc(-c2ccnn2C)c2ccnc(-c3ccn[nH]3)c2n1 (stereo not drawn) + Nc1ccc(C#CCN(C(=O)Cc2ncc(C(F)(F)F)cc2C(F)(F)F)c2ccc(F)cc2)nn1", "Assay target": "926638-142-R-J1-PDC complex spheroid viability", "viability, T/C, %": 14}
{"Compound": "O=C(c1cc(Cc2n[nH]c(=O)c3ccccc23)ccc1F)N1CCN(C(=O)C2CC2)CC1 + COC1C(OC(N)=O)C(O)C(Oc2ccc3c(O)c(NC(=O)c4ccc(O)c(CC=C(C)C)c4)c(=O)oc3c2C)OC1(C)C", "Assay target": "926638-142-R-J1-PDC complex spheroid viability", "viability, T/C, %": 84.3}
{"Compound": "CC1COCCN1c1cc(C2(S(C)(=N)=O)CC2)nc(-c2ccnc3[nH]ccc23)n1 (stereo not drawn) + Cc1cccc(N(C)C(=O)C2C(O)CCN2c2nc(C)cc(C(F)(F)F)c2C#N)c1", "Assay target": "926638-142-R-J1-PDC complex spheroid viability", "viability, T/C, %": 59.2}
{"Compound": "CC(C)n1c(=O)n(C)c2cnc3cc(F)c(-c4ccc(OCCCN5CCCCC5)nc4)cc3c21 + Nc1ccc(C#CCN(C(=O)Cc2ncc(C(F)(F)F)cc2C(F)(F)F)c2ccc(F)cc2)nn1", "Assay target": "926638-142-R-J1-PDC complex spheroid viability", "viability, T/C, %": 95}
{"Compound": "CC(C)n1c(=O)n(C)c2cnc3cc(F)c(-c4ccc(OCCCN5CCCCC5)nc4)cc3c21 + COC1C(OC(N)=O)C(O)C(Oc2ccc3c(O)c(NC(=O)c4ccc(O)c(CC=C(C)C)c4)c(=O)oc3c2C)OC1(C)C", "Assay target": "926638-142-R-J1-PDC complex spheroid viability", "viability, T/C, %": 87.2}
{"Compound": "C#Cc1c(F)ccc2cc(O)cc(-c3ncc4c(N5CC6CCC(C5)N6)nc(OCC56CCCN5CC(F)C6)nc4c3F)c12 (stereo not drawn) + Cc1cccc(N(C)C(=O)C2C(O)CCN2c2nc(C)cc(C(F)(F)F)c2C#N)c1", "Assay target": "926638-142-R-J1-PDC complex spheroid viability", "viability, T/C, %": 58.3}
{"Compound": "CCc1cc2c(N3CCc4c(cc(Cn5ccnc5)cc4-c4cn(C)nc4C(F)(F)F)C3=O)ccnc2c(OC)n1 + Nc1ccc(C#CCN(C(=O)Cc2ncc(C(F)(F)F)cc2C(F)(F)F)c2ccc(F)cc2)nn1", "Assay target": "926638-142-R-J1-PDC complex spheroid viability", "viability, T/C, %": 38.7}
{"Compound": "COc1ccc([C@@H](O)c2cc(-c3ncnc4cc(N5CCOCC5)ccc34)c(F)cc2Cl)nn1 + Nc1ccc(C#CCN(C(=O)Cc2ncc(C(F)(F)F)cc2C(F)(F)F)c2ccc(F)cc2)nn1", "Assay target": "926638-142-R-J1-PDC complex spheroid viability", "viability, T/C, %": 20.1}
{"Compound": "Nc1ccn(C2OC(CO)C(O)C2(F)F)c(=O)n1 (stereo not drawn) + COC1C(OC(N)=O)C(O)C(Oc2ccc3c(O)c(NC(=O)c4ccc(O)c(CC=C(C)C)c4)c(=O)oc3c2C)OC1(C)C", "Assay target": "926638-142-R-J1-PDC complex spheroid viability", "viability, T/C, %": 41.4}
{"Compound": "COc1cc(C2c3cc4c(cc3C(OC3OC5COC(C)OC5C(O)C3O)C3COC(=O)C23)OCO4)cc(OC)c1O (stereo not drawn) + Nc1ccc(C#CCN(C(=O)Cc2ncc(C(F)(F)F)cc2C(F)(F)F)c2ccc(F)cc2)nn1", "Assay target": "926638-142-R-J1-PDC complex spheroid viability", "viability, T/C, %": 77.8}

Origin of measurements: PubChem BioAssay AID1963826
